molecular target: human EGFR (d746-750/C797S) (Homo sapiens, UniProt P00533, C797S/DEL746-750); construct: purchased SignalChem; experiment: Inhibitory activity against EGFR (d746-750/C797S) kinase; format: biochemical; details: Test Example 1, Table 4; ATP 14 μM, 60 minutes
Sequence (P00533 with tags, fused parts or gaps DEL746-750/C797S): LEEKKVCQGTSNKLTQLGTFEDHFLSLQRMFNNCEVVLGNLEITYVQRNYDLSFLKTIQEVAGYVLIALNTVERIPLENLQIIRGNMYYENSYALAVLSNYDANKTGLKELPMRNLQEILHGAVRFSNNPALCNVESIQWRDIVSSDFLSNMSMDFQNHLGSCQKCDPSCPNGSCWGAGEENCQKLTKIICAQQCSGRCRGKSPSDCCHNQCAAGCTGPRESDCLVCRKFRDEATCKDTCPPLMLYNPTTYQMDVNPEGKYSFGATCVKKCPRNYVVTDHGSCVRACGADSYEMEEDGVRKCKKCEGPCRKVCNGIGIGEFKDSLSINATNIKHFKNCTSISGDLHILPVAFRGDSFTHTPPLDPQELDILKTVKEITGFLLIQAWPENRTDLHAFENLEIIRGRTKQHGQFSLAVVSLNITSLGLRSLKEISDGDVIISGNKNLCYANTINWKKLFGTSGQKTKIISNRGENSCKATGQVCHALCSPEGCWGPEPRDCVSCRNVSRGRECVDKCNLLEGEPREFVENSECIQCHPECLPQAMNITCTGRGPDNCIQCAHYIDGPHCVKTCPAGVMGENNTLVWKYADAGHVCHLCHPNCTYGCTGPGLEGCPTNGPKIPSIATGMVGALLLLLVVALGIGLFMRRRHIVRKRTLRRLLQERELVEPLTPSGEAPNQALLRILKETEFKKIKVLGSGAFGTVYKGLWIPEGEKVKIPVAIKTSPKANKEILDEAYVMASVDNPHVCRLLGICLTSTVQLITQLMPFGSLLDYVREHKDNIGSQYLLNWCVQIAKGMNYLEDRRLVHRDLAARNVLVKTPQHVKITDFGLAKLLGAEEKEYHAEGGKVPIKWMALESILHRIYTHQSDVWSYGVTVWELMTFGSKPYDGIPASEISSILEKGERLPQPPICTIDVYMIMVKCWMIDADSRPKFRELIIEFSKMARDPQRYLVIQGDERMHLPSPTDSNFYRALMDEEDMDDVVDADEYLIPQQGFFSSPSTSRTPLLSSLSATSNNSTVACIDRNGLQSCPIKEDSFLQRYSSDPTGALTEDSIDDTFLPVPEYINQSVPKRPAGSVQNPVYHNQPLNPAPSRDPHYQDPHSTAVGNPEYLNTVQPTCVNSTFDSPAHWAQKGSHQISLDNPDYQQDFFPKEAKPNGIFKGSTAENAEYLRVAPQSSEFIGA
property: IC50 (nM)

C#Cc1c(-c2cnc3ccccc3c2)c2c(N)ncnc2n1C12CCC(NC(=O)c3nccs3)(CC1)C2 [Example 53] :: 0.88

(1) C#Cc1c(-c2cnc3ccccc3c2)c2c(N)ncnc2n1C12CCC(NC(=O)c3nccn3C)(CC1)C2 [Example 23]
(2) C#Cc1c(-c2cnc3ccccc3c2)c2c(N)ncnc2n1C12CCC(NCC#N)(CC1)C2 [Example 4]
Problem: Returns: the argument ( 1 or 2 ) having the larger IC50. Write down the label attached to your selection.
Result: 2
(2: 1 nM, 1: 0.7 nM)

----------
biological target: human EGFR (d746-750/C797S) (Homo sapiens, UniProt P00533, C797S/DEL746-750); construct: purchased SignalChem; experiment: Inhibitory activity against EGFR (d746-750/C797S) kinase; format: biochemical; settings: Test Example 1, Table 4; ATP 14 μM, 60 minutes
property: IC50 (pM)

Examples with their reported IC50 follow.
C#Cc1c(-c2cnc3ccccc3c2)c2c(N)ncnc2n1C12CCC(NC(=O)c3cc(CF)nn3C)(CC1)C2 :: 320
C#Cc1c(-c2cnc3ccccc3c2)c2c(N)ncnc2n1C12CCC(NC(=O)c3ccccc3)(CC1)C2 :: 1800

(I) C#Cc1c(-c2cnc3ccccc3c2)c2c(N)ncnc2n1C12CCC(NC(=O)c3cnc(Cl)cn3)(CC1)C2
(II) C#Cc1c(-c2cnc3ccccc3c2)c2c(N)ncnc2n1C12CCC(N3CCOCC3)(CC1)C2
Problem: // compare measured IC50 between I and II ; output the lower one Write down the label attached to your selection.
Result: II
(II: 360 pM, I: 790 pM)

----------
target: human EGFR (L858R/T790M/C797S) (Homo sapiens, UniProt P00533, C797S/L858R/T790M); construct: made in house; host or cells: Sf9 insect cells, baculovirus; assay: Inhibitory activity against EGFR (L858R/T790M/C797S) kinase; type: biochemical; conditions: Test Example 1, Table 3; ATP 0.5 μM
Sequence (P00533 with tags, fused parts or gaps T790M/C797S/L858R): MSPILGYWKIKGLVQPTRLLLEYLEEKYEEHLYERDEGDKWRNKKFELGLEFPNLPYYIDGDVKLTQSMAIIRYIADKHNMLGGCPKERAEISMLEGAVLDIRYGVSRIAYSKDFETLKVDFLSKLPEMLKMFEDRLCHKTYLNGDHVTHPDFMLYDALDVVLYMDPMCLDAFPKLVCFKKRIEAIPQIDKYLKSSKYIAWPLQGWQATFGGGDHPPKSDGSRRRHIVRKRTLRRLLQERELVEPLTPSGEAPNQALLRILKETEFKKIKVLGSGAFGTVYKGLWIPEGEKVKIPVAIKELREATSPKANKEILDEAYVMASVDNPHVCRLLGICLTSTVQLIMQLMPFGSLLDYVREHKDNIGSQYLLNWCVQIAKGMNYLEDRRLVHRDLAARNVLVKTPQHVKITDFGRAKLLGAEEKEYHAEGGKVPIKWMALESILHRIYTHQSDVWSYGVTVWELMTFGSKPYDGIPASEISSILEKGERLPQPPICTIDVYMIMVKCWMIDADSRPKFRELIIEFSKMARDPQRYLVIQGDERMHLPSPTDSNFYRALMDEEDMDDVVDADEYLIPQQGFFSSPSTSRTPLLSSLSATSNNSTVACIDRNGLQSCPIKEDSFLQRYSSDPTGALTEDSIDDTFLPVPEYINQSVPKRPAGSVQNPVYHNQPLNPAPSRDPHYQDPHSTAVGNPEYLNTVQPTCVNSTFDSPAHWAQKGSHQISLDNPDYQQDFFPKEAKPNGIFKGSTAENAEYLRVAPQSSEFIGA
pIC50: −log10 of the molar value.
property: pIC50

C#Cc1c(-c2cnc3ccccc3c2)c2c(N)ncnc2n1C12CCC(NC(=O)c3ccnn3CCOC)(CC1)C2 :: 9.10
C#Cc1c(-c2cnc3ccccc3c2)c2c(N)ncnc2n1C12CCC(NC(=S)NCC)(CC1)C2 :: 9.22
C#Cc1c(-c2cnc3ccccc3c2)c2c(N)ncnc2n1C12CCC(CO)(CC1)C2 :: 9.25
C#Cc1c(-c2cnc3ccccc3c2)c2c(N)ncnc2n1C12CCC(NC(=O)c3noc(C)n3)(CC1)C2 :: 9.25

----------
target: human EGFR (L858R/C797S) (Homo sapiens, UniProt P00533, C797S/L858R); construct: purchased SignalChem; experiment: Inhibitory activity against EGFR (L858R/C797S) kinase; type: biochemical; details: Test Example 1, Table 5; ATP 4 μM, 90 minutes
Sequence (P00533 25-1210 C797S/L858R): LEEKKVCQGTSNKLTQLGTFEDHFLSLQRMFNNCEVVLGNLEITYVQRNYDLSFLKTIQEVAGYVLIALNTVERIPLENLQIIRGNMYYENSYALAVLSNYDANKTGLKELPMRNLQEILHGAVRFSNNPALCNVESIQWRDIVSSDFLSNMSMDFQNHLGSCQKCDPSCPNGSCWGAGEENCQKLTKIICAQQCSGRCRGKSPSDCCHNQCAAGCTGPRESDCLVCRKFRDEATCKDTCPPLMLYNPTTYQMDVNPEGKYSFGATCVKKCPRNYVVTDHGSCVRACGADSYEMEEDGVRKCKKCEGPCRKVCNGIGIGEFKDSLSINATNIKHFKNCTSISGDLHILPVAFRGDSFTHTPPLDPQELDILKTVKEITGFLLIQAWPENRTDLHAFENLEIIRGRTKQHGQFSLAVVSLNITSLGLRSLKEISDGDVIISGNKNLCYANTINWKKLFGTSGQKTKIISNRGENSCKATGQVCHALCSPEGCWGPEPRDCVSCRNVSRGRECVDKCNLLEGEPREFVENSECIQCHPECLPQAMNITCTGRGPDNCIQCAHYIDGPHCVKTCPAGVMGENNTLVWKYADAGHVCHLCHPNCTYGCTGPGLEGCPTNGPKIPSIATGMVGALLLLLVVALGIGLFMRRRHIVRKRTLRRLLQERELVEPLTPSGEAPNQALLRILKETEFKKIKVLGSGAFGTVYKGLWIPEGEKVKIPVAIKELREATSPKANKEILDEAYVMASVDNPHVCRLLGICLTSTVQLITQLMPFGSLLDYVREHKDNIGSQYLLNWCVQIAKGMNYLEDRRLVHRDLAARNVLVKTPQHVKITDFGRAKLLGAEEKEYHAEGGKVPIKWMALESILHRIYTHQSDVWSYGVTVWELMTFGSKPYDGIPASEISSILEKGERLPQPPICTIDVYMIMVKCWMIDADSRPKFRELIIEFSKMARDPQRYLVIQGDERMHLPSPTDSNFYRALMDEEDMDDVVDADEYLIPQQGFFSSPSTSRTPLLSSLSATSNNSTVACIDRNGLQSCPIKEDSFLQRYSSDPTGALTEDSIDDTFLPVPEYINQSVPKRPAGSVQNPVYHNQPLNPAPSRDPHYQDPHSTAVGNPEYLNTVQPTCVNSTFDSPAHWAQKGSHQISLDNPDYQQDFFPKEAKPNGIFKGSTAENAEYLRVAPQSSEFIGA
pIC50: −log10 of the molar value.
property: pIC50

C#Cc1c(-c2cnc3ccccc3c2)c2c(N)ncnc2n1C12CCC(NC(=O)c3ccnn3-c3ccccc3)(CC1)C2 [Example 26] :: 9.08
C#Cc1c(-c2cnc3ccccc3c2)c2c(N)ncnc2n1C12CCC(NC(=O)CN(C)C)(CC1)CC2 [Example 55] :: 8.92
C#Cc1c(-c2cnc3ccccc3c2)c2c(N)ncnc2n1C12CCC(NC(=O)c3ncccn3)(CC1)C2 [Example 51] :: 9.00
C#Cc1c(-c2cnc3ccccc3c2)c2c(N)ncnc2n1C12CCC(NC(=O)c3cnns3)(CC1)C2 [Example 18] :: 9.17
C#Cc1c(-c2cnc3ccccc3c2)c2c(N)ncnc2n1C12CCC(NC(=S)N3CC4(CN(C)C4)C3)(CC1)CC2 [Example 56] :: 9.05
C#Cc1c(-c2cnc3ccccc3c2)c2c(N)ncnc2n1C12CCC(NC(=O)c3cncc(F)c3)(CC1)C2 [Example 35] :: 9.08
